All values here come from the supplement of paper PMC6555819.

PBM binding z-score: recorded values
test system: LXRa homodimer (NR concentration 270 nM); test: PBM binding z-score (relative to random genomic background probes); higher = stronger binding; sequences stand for … in GC…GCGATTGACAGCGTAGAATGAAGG
Could you respond with only the numeric value?

Recorded results for 5 sequences are shown here.
TCATATAGGTCATACAGGTGAAAGTCGGCATCTA ... 1.98
CGTCCAAGGTCATAGGAGGTCAGTCAAGACAGAT ... 5.22
CCTGCAAGGTCATGGTCAGCTAATCTACAGTATG ... 0.64
TCTTGTAGAACAACAGGAGGTTAAGAAAGATCGA ... -0.0587
GGAACGAGGGCAAACTTGATAGCATCTGTCGACG ... -0.0239

# ---- query sequence ----
Asked: PBM binding z-score for CCTGCTAGGTCATGGTCAGCTAGTCTACAGTATG ?
Given back: -0.0362

----------
The entries below come with measured PBM binding z-score values attached.
test system: THRa:RXRa (NR concentration 90 nM, RXRa partner concentration 90 nM); assay: PBM binding z-score (relative to random genomic background probes); higher = stronger binding; sequences stand for … in GC…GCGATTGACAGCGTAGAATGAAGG
Please state the value as a number alone, without comment.

Completed entries (count: 3):
CGTCCAAGGTAAAAGGTCAGTGAAGAGATGACGG ... 3.28
TGAATGAGGTTAGAAGATCAGGGAACGTTGCAAA ... 1.13
AGAATGAGGTTACCAAAGATCAGGTAAACGCTTG ... 2.98

Asked: I am curious: what PBM binding z-score value has been reported for TCGAGTAAGTTACCAATGGGGCATTCAGCTTTCT ?
Given back: -0.445

Asked: So what's the measured PBM binding z-score for this one? TCTATTAGTTGATTGGGGCAACCGAAACAGCGGA
Given back: 0.545

Asked: Need PBM binding z-score, item TCTTGTAGATCAAGCAGTTTAAGAAAGCCTGAGT
Given back: -0.266

Asked: Field request: PBM binding z-score | item: CTACCAAGTTGAACAAGGTCGTTGATTACTATTC
Given back: 2.77

Asked: Record request: PBM binding z-score value, item ACTCAAAGTTCATCTAGGTAACGTAAGATATGCT
Given back: 3.37

Asked: What PBM binding z-score value was documented for this sequence, TCTGCTAGGTCAACGATGGCCAGCTAATCTGCTA ?
Given back: 2.6

Asked: Tell me the measured PBM binding z-score of CTACCAAGGCGAACAAGGTCGTTGATTACTATTC , please.
Given back: 2.38

Asked: Given CGAACTAGGTCATTGACAGGACCGTGAATAGTAA , state its recorded PBM binding z-score.
Given back: 2.32

Asked: I am curious: what PBM binding z-score value has been reported for TCTTGTAGATCAGCAGGTTAAGACAGCTGGCCAA ?
Given back: 0.272

Asked: # PBM binding z-score lookup, item TCAGACAGGTGAAGGTAACTCGGGTACGCAGTCG
Given back: 1.66

----------
tested on: RARb:RXRa (NR concentration 270 nM, RXRa partner concentration 90 nM); assay: PBM binding z-score (relative to random genomic background probes); higher = stronger binding; sequences stand for … in GC…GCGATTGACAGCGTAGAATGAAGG
VALUE TYPE: PBM binding z-score
Respond with the number and no other words.

Example cases with answers are listed next.
CAAACTAGGTCATAGGTCAAAGTCGAGCCAACCA ... 4.76
CCAACTGGGCCATTCAGAGGTCATTGATCATATG ... 3.02
AGACTGAGGTTATTAAGATCAGGGAATTGCGGTC ... 1.4
TCGAGTAGGTTACCAATGGGGCATCCAGCTTTCT ... 1.03

Asked: Recorded PBM binding z-score of AGAACGAGGGCAATTAGTTGATAGCACGGGTGGC , please.
Given back: 2.06

Asked: Param item = TCATATAGGTAAATGCTAGGCGAAAGTCCGATCT ; retrieve measured PBM binding z-score.
Given back: 0.249

Asked: Data request, read-out PBM binding z-score, for CCGAGCAGGCCAGGGTCACTCAAGCATTTCGCTT
Given back: 2.65

Asked: // lookup PBM binding z-score for ACAGACAGGTGAGTGAATGTAACTCAGCTGGACG
Given back: 0.384

Asked: # input sequence: ACAGACAGGTGAGTGATGGTAACTCAGCTGGACG ; wanted: its PBM binding z-score
Given back: 0.377

Asked: Return reported PBM binding z-score; argument: TTACCAAGGTAAGCTGAGGTCGTTGATCCAACTC
Given back: 0.571

Asked: Entry CATACAGAGTCAGCTAGGCCAGAGTAGGGACGGC : reported PBM binding z-score = ?
Given back: 0.148

Asked: Value lookup for PBM binding z-score; key = CGTCCAATGTCATAGGAGGTCAGTGAAGACAGAT
Given back: 2.9
